- TEST_TARGET: UniProt:P34972
- Sequence (P34972 whole entry): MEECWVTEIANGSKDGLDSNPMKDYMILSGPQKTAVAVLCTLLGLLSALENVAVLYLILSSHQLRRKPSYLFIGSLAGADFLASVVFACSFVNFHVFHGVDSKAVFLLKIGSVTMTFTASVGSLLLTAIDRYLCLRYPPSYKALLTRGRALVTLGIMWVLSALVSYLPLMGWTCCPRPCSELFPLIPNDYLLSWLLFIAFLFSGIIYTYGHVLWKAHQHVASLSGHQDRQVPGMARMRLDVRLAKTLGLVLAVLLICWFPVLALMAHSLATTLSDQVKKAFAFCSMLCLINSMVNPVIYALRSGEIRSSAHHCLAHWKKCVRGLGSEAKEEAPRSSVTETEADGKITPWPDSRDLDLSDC
- TEST_PROTOCOL: Cannabinoid CB2 receptor radioligand binding, displacement of [3H]CP55,940
READOUT: Ki

[[record]]
smiles_entry = "O=C(NN1CCCCC1)c1nn(-c2ccc(Cl)cc2Cl)c2cc(Br)ccc12"
readout = "Ki"
test_result = "1190 nM"


###

- TEST_TARGET: UniProt:P21554
- Sequence (P21554 whole entry): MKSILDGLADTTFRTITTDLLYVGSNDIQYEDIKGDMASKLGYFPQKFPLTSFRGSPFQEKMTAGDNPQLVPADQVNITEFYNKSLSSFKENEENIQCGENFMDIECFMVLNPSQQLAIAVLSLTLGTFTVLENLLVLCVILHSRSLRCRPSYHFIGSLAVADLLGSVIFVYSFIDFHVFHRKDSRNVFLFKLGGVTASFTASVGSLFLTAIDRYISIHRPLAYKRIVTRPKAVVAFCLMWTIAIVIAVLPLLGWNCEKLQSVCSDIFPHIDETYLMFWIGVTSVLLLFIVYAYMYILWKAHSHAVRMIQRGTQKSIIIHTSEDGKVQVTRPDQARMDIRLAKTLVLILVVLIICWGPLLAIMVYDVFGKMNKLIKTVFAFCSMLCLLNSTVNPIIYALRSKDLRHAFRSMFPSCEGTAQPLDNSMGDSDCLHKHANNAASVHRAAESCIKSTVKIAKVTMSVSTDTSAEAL
- TEST_PROTOCOL: Cannabinoid CB1 receptor radioligand binding, displacement of [3H]CP55,940
READOUT: Ki

[[record]]
smiles_entry = "O=C(NN1CCCCC1)c1nn(-c2ccc(Cl)cc2Cl)c2cc(Br)ccc12"
test_result = "881 nM"

[[record]]
smiles_entry = "CC1=CC[C@@H]2[C@@H](C1)c1c(O)cc(C(C)(C)CCCCCC(=O)NCCc3ccc(S(N)(=O)=O)cc3)cc1OC2(C)C"
test_result = "38 nM"

[[record]]
smiles_entry = "CCCc1cc(C(=O)NN2CCCCC2)cc(-c2ccc(Cl)cc2Cl)c1-c1ccc(Cl)cc1"
test_result = "166 nM"

